test: Plasma pharmacokinetics of LXI-15029 (LC-MS/MS, non-compartmental analysis)
Type: in vivo, human
condition.notes: human, plasma, oral; single dose, cycle 1 day 1; 150 mg BID (n = 4); geometric mean (coefficient of variation)
quantity.kind: AUC(0-inf) (ng·h/mL)
Numbers only, in ng·h/mL.

Lab note: CNC(=O)c1cccc(-c2ccc3c(N4C5CCC4COC5)nc(N4CCOC[C@@H]4C)nc3n2)c1 [LXI-15029] gave AUC(0-inf) of 12100
